# assay-comment: soluble fraction after stress (log2 fold change); higher = more stays soluble; pooled small domains, quantitative proteomics
# condition-summary: stress: pH 4
property-label: soluble fraction (log2)

1) HMEPIAFDNMHNRGIKGTNDWTQYEITLPFSAEAKKIFVAGLLVGKGKAWFDKFEVFLDGKNITDVAQI; -0.0075
2) HMAELTTVQAADILHVSRPFLIKLLDEGQIPYHRVGKHRRIRMEDVMNYKRAIDQQREAVLDQLVAEA; 0.014
3) HMTTTFGWENLVGEKGIAATDLHPSGWVTVKDQRVFVVSEGTFIEEGKEVEIMNVDGNRIVVREFKN; -0.46
4) HMDEQVETLKNLISELPKEQLEVLVMRHYEDLSFKEISEKTGVSINTALGRMRYALINIRKLMKENN; -0.488
5) HMQEDKVRKLTEMGFAEDQAREALRKHDWDETMALNSL; -0.244
6) HMNTVAGAISDLSFKVRGSEDIEKLNRLKALSIQAKLDVQGQEEAERLISELEAKYGSLGMTVDKVSGKIA; 0.192
7) HMQSMEIDENEIPSIDKLSEYIEYFKRIYNALFDDKQLAITNIDVLERHFANNFNTLRFKMDE; -0.534
8) HMYHPGFEALREVARQGSFIKAARALGISGPAVSKQIKSLEARLNLVLLHRTTRAVTLTEAGQRLTEILD; -0.437
9) HMQYFDIETEIQKFIKSENNLSDFDKETLQSFLYQLSKGSPEENTAKKVVDILNKFLPLTTAIINMIKALT; -0.381
10) HMKKPKTVLSEEQKEFIINQAQDGVSAYDIARILFPSVNVTNLSKEVIDVAEFIRDTDIKLLADSE; -0.132
11) HMNNVDQLIEQYKTLPGGLLPLLHAIKHALGYIPESTVGSIAKGFNLSRAEVHGVISFYHDFNTQP; -0.365
12) HMEAYSAEAVRFRIKAMIESETVDDVMSDDKIVERLLADGVDIARRTVAKYREAMNIPSSVKRRRKLKGM; -0.962
13) HMLSKEERRSQLLDLGVRLLSTRSLDELSIDLLAEEAGISRGLLYHYFGNKHDFHEAVVRRAADDLI; -1.12
14) HMKNLADNIVALRKKHGLSQEQFAEKIDVTRQAVSNWERRIATPDVETIDLIAKLFDTDLTALVNG; -0.129
15) HMQDKLLRKKEVLEMVSITNSTMYRMIGSGQFPRPIRLDNANINSGVRWKLSEINTFIEQRF; -0.893
16) HMTVPDVKGMGARDAVFLLETLGFKVRINGIGQVYEQSIDPGKSYSKGEFISLRL; -0.81
17) HMVSDAWITGKVKSQLLADDVTPGMKIDVDTEDRIVSLKGTVPSLTARNEAIRIASHTKGVRTVDADELIV; -0.0247

----------
# assay-comment: soluble fraction after stress (log2 fold change); higher = more stays soluble; pooled small domains, quantitative proteomics
# condition-summary: stress: pH 4
property-label: soluble fraction (log2)

1. HMGGNVYAYRLTASVKSGEQIPANKIEKVKMLSSDLPTNYVPDTVNVTAYKSKLDLQAGTILSTSLLYEN; 0.247
2. HMRKLHFVMSEIYEDHPWIGSKLQDVFLPKDIRVVLVERDSKQFMPNGQTLFELGDRLTLSALHYDPA; -2.22
3. HMEKSSALRAKEAFMALYHDGKFKPGTKIPSESNMAELLGVSRETWRKALALLRGDGVLYSKHGSGTYLLE; -0.0262
4. HMSREVTVPPLSGLTLRDAARTLAERGLLMEAEGQGAVHRQDPPAGTRVPTGTPVRVFLTLPEQNS; -0.511
5. HMGESYQIKDGELLVDIAQRVKPAGMTLRQTINALVAANPRAFRNGNPDLMYRGATLTIPDGDTLRRLAH; 0.0238
6. HMGAARRFEMSEGGSQKFWEVAVEGPALTVRFGKLGTAGTTQTKTLASAEAAAKEADKLVREKTKKGYAP; -0.596
7. HMQSAKLSYSDFMQKVNAGDVVSVKIQGPKISGVTTGGGKFMTYAPEDPTLVSTLMQKKVEVMAEP; 0.173

----------
# assay-comment: soluble fraction after stress (log2 fold change); higher = more stays soluble; pooled small domains, quantitative proteomics
# condition-summary: stress: pH 4
property-label: soluble fraction (log2)

1) HMSVLSEQIKEQLMEDIFHKKYKAGDRIVESALARELGVSQASVREALRSLIAMGFLENEPFKGITVR; 0.107
2) HMEMTEDEITKQFDAMEREAKKEIDTGADKRAFMYGVSRTAAGMAGKNPKYARFITDKAKEVIENIAKYK; 0.207
3) HMVVDEQRIQTLVSAAEQNSSDPVPRVTLGNLYFDAEQFEEAVKWYEQALALDPRNVNVSTDLGVGYYY; -0.451
4) HMPKETFLNLDEEKRQAIINVLLKNFSEQHISQVKVSAIVSGIGMSRGAFYKYFEDLEDAYRFTISYFSA; -0.0967
5) HMTILTSSQRKALISKMIRQGGVESQSHLVKLLAREGVKVTQATASRDLEDLGATRVRDANGEFQYVIP; 0.0156
6) HMKHVENLSDEKTIQAIQENPYMQYLLGLSKFTEKPVFVPELFVLIRKRLDQDFFNMLTLILAEADG; -0.778
7) HMIISPKKLEYRQRIINALGDRKMSLNELSKAMGYKGITTKLSFTVDDMIKSGVIEKVMVGAYAKLHIP; 0.22
8) HMSAEDYLERIHELIESKGTAHVADIAQSLGVGKPSVTSMVQKLADEGYLNYEKYRSLTLTDSGRSIA; 0.0599

----------
# assay-comment: soluble fraction after stress (log2 fold change); higher = more stays soluble; pooled small domains, quantitative proteomics
# condition-summary: stress: pH 4
Use -0.4 as the dividing line for soluble fraction (log2), with the line itself on the YES side and lower values as NO.

1. HMPSLAVYPNPVKDILNIATDKPVHSIRIYNVYGSEVLRAADTNRIDVSHLPAGVYMVSADGKVTRIIK; YES
2. HMRELSDFEKLLFTTTLERKMINLAMLLTRSNKADSKDLIQDSYLKAIENQVQFNGNNIDAWVITILKNTF; YES
3. HMQSHIVPDVKSQHIAQAKALLESKQMKAVVIDSNFVKGLPAGIVLDQTPIGGARVKENRTIYLTINTL; YES
4. HMAVIILDEPTLGLDPAVRISLWQAIQSARDSTMSAFLITTHYIKEVADYLSAVKILDHGREVASGNPSAL; NO
5. HMELSSRQAMIVDIVRKYEPITSEQIADKLNLTRSALRPDLAVLTMIGILEARPRVGYFFTGK; YES
6. HMEYPNEIARIFNQIPELNVSAVARTLGINKSLLSSYIYGMKKPSPERTEEIKSAIRKIGQNMLAV; YES
7. HMSEMVIPEDFLAALETNPQAKAFYATLNRQNQYAVYHRLQTAKRPETRAKRIADFVAQLAAGKRF; YES
8. HMLSVRQRMGELLERLADGQFHRFESLFTVEEGKLGVVVTFLGLLTLAKEQLLDIVQEGPTAPIYVKSLA; YES
9. HMLPVQGEEVAPGLYKFDFPFLADKRVWEKTINAFKAEHPELKVNYIYTGPDELNSKKKTHVLVYVFTES; YES
10. HMANYHDIAADLRSKINHGFYEEEKKLPKQSELAADYQTSRVTIQKALNILQMEGIIYGKKGTGTFIRDSY; YES
11. HMDTETLIDKYQLNASEAAVLRFMDKNRDSLRDLGIRDVARASYVSTATIVNMAKKIGYSGYSELVFAYGS; NO
12. HMLNDTGAIRAAVEEVLAANEKSVNEYKGGKTQAFQYLIGQSMRALRGKAPAQEVTKLLKELLG; YES
13. HMPAVTEQTRANLRTAFWSLYREKPTSKITVREITDRAGYNRATFYLYYRDVYDLFEQIEQEIL; NO
14. HMKGVENLSDIDIQKALNNARANLSKNKAKLEQAGDDEKKKASALAMIQKWETTKKAIEEEIEARKKKSLN; YES
15. HMLLTEETLPQLKQIVDEFPYFQIARMLYLKNLAVLNDIRFSVELKKMSIYVPDRRKLFTLIEGE; NO
16. HMGAIVTGTVVEIRSDVVIVNAGLKSEGVVPIEQFRNEAGELEVSVGDEVKVALDALEDGFGETRLS; NO
17. HMTNYGTVRPGARGQAVTALQQALIRHGYKLTADGIYGRATRQAVRAFQQKHKLKVDGIVGSKTWALLLAD; YES
18. HMQMPDLTGKPRAEAVTTLAALGFTDVKFLDASAGDEPLDYVADQVVRTSPEAGAALASGQQITIYLAT; YES
19. HMVEIGENIKKLRKAKRMTQKEVANQLNVTPQTISKWERNISYPDLDMLVKLSQLFHISTDALL; YES
20. HMATVNIGNLTFTHKGDYASGTTYAKNDVVYYSTNGNAYIAKQATQGNAPTSTAHWDVFAAGSGG; YES
21. HMGGPTARQMEVLSLIAQGLPNKRIADELGIAERTVKLHITALLDSLGARNRTHLLVVARERGM; NO
22. HMVFADRLRALRKKSGLTQDEFSKQTGIGRSAVGMYESGKREPNYTTLSKVARFYHVSTDYLLGRTDTP; YES
23. HMNIVKGDTTANVRVVQQRLYNLGYYTYKVDGIWGTRTKTAVKKFQKDKGLVADGIVGAKTEKALGITLT; YES
24. HMKDEHYLYIKARVDNGDYPHLSELKSAEEIELVMPKLLQDGIVEFNKETGEYTIGEDVKAEIERL; NO
25. HMFDLATVKRVAEEAGMKFTIHPVELRAAHPNTAVLTLKSKAGRILVLKAASVGGGRIRVTEIDGVPAD; YES
26. HMDKEKLQEKLLQIFEAEPQKKFQVQDLVKVLDMEGAGQFKFVVQALADLEHNKQIKLSEDDTFSLIVKE; YES
27. HMNEIALETAIEDVESFIQMQNRNLAFSIDEDTDRAVVTVRDSDSGDVIRQIPSEEVLALAERIQDLQQD; NO
28. HMEVPMELPRQLRANRERLGLSQEDVAHAIYVSRQTMSSWERGKTYPDVQSLMLLSHLFGISIDELVKGDV; YES
29. HMNSIQEQIEKYVYSLAPVTIERYESLKNGDIEDIEFEKLRKSISSKIINEKIDNKKQVAILSHLKKMYSD; NO
30. HMDYKAELDNIIRDHLDMEGPLLPVLHAVMARFSYIPKDAIPIIARKLNLSSAEVSGVISFYHDFKKEK; YES
31. HMPHTDATDKQIIALILETLKDGQKHSVSEMTFPGIPREKTAQLLHQMIEEETVRIQNGVLFLPH; YES
32. HMDVLTARENEVLQLLAKGMSNKEIASVLVITEKTVKAHVSSILSKLNLSDRTQAALYAVKNGI; YES

Values were extracted from the domain aggregation screens of Martell et al. (2025).
